Overview of reported MIC across a group of molecules:
Test system: S. aureus MP-12
Experiment: Broth dilution MIC determination (CLSI), S. aureus MP-12
Type: cell-based
Details: Staphylococcus aureus, MP12; strain MP-12, broth dilution

Record excerpt, results attached:
smilesStr	MIC
CO[C@]1(C)C[C@@H](C)CN(C)[C@@H]([C@H]2CC[C@H](N(C)C(=O)CN(C)C)CC2)COC(=O)C(C)(C)C(=O)[C@H](C)[C@H]1O[C@@H]1O[C@H](C)C[C@H](N(C)C)[C@H]1O	> 32 µg/mL
CO[C@]1(C)C[C@@H](C)CN(C)[C@@H](C2CCNCC2)COC(=O)C(C)(C)C(=O)[C@H](C)[C@H]1O[C@@H]1O[C@H](C)C[C@H](N(C)C)[C@H]1O	4 to 32 µg/mL
CO[C@]1(C)C[C@@H](C)CN(C)[C@@H]([C@@H]2CCCNC2)COC(=O)C(C)(C)C(=O)[C@H](C)[C@H]1O[C@@H]1O[C@H](C)C[C@H](N(C)C)[C@H]1O	4 to 32 µg/mL

Task: Under S. aureus MP-12: MIC value of CO[C@]1(C)C[C@@H](C)CN(C)[C@@H](C2CCN(C[C@@H]3COC(=O)N3)CC2)CO[C@@H](O)C(C)(C)C(=O)[C@H](C)[C@H]1O[C@@H]1O[C@H](C)C[C@H](N(C)C)[C@H]1O ?
Result: > 32 µg/mL

Task: Another molecule to look at: CO[C@]1(C)C[C@@H](C)CN(C)[C@H](C2CN(C(=O)CCN(C)CC3CC3)C2)COC(=O)C(C)(C)C(=O)[C@H](C)[C@H]1O[C@@H]1O[C@H](C)C[C@H](N(C)C)[C@H]1O
Result: > 32 µg/mL
